experiment: Tissue distribution in rats; format: in vivo; conditions: both sexes, Sprague-Dawley (SD), rat, kidney, iv, 10 min after i.v. 20 mg/kg of C118P, read-out: tissue concentration in kidney
Quantity Kind: concentration at 10 min (ng/g)

> print(dat)
                                   compound  numeric.readout
1  COc1cc(OC)cc(-c2nc[nH]c2-c2ccc(OC)c(O)c2)c1             7640

* * *

Assay: PK in dogs after i.v. C118P
Assay type: in vivo, beagle dogs
Details: both sexes, beagle, dog, in vivo; dogs, plasma, i.v. C118P 6 mg/kg, n = 6; read-out: C2min
Protocol: The beagle dogs were purchased from Nanjing Ya Dong experimental animal research center. Twelve beagle dogs with half males and half females were divided randomly into two groups. C118P was dissolved in saline to different concentrations for intravenous administration. […] Plasma was prepared by centrifugation at 8000 rpm for 5 min, and the plasma samples were then prepared and determined by the method described above. […]
Quantity Kind: concentration at 2 min (µg/mL)

> print(dat)
                                   compound  units.text  numeric.readout
1  COc1cc(OC)cc(-c2nc[nH]c2-c2ccc(OC)c(OP(=O)([O-])[O-])c2)c1.[Na+].[Na+] [C118P]       µg/mL             64.2
